experiment: small-molecule microarray binders of probe aCHRDL2, primary screen, biochemical, biotinylated probe, 635/667 nm fluorescence (AID 1100); settings: higher = more signal
Label 1.0 when composite z-score >= -0.3; otherwise 0.0.

In plain terms: is recorded composite z-score at least -0.3 for CC(c1ccccc1)C(O)C1C=CC2C(=O)N(C)C(=O)C2N1N(c1ccccc1)c1ccccc1 (stereo not drawn) ?
1.0

In plain terms: is recorded composite z-score at least -0.3 for "COc1ccc(-c2ccccc2[C@@H]2N[C@H](C(=O)O)CC[C@H]2C)cc1" ?
0.0

In plain terms: is recorded composite z-score at least -0.3 for Cc1ccccc1C(O)C1C=CC2C(=O)N(c3ccccc3)C(=O)C2N1Nc1ccc(C#N)cc1 (stereo not drawn) ?
1.0

In plain terms: is recorded composite z-score at least -0.3 for CC(C)N1CC=CC23O[C@@H]4/C=C\CCCOC(=O)C4[C@H]2C(=O)N(CCCCCO)[C@@H]3C1=O (stereo partly drawn) ?
1.0

In plain terms: is recorded composite z-score at least -0.3 for "CCCNC(=O)[C@@H]1c2ccccc2C(=O)N(Cc2cc(F)cc(C(F)(F)F)c2)[C@H]1c1ccc(CO)cc1" ?
1.0

In plain terms: is recorded composite z-score at least -0.3 for "CCOC(=O)C[C@H]1[C@H](OC(=O)c2cc3ccccc3oc2=O)[C@@H](NC(=O)C2CCCCC2)c2cc(OCCCO)ccc2N1C(=O)c1ccc2ccccc2n1" ?
1.0

In plain terms: is recorded composite z-score at least -0.3 for "O=C1C[C@@](C(=O)NC2CC2)(c2ccc([N+](=O)[O-])cc2)[C@@H](c2ccc(CO)cc2I)N1CC12CC3CC(CC(C3)C1)C2" ?
0.0

In plain terms: is recorded composite z-score at least -0.3 for "CC(C)=C1C(=O)C(c2ccccc2)=C2CN3C(=O)N(CCc4ccccc4)C(=O)[C@]3(Cc3ccccc3)[C@H]21" ?
1.0
